tested.system: β-N-acetylhexosaminidase from Streptomyces plicatus (Streptomyces plicatus)
Construct: gene hex; synthetic gene, His6-tagged fusion in pET-15b (NdeI/BamHI), E. coli BL21(DE3) pLysS, Ni-NTA purified; GH20
Sequence (O85361 1-506): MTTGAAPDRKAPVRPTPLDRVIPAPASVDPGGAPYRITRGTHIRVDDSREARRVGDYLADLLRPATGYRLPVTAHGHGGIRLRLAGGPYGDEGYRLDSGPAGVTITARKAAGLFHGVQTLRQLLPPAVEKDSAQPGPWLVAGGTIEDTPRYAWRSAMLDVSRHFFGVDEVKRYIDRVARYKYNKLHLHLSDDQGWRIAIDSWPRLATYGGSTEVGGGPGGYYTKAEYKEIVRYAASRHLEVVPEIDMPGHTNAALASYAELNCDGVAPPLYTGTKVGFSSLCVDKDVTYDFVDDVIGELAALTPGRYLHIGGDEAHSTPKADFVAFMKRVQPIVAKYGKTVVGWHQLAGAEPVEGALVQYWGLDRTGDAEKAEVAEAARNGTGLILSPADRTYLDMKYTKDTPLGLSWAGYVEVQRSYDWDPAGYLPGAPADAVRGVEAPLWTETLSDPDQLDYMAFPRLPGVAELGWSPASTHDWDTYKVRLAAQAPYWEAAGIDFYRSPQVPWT
procedure.summary: pNP-β-GlcNAc hydrolysis, kinetic assay at […] nm
Format: biochemical
condition.parameters: read-out: KI [μM] / NAG-thiazoline (1)

{"molecule": "CC1=N[C@@H]2[C@@H](O)[C@H](O)[C@@H](CO)O[C@@H]2S1 [compound 1]", "tested.system": "β-N-acetylhexosaminidase from Streptomyces plicatus (Streptomyces plicatus)", "quantity.unit": "µM", "Ki": 24}

* * *

tested.system: O-GlcNAcase from Bacteroides thetaiotaomicron (Bacteroides thetaiotaomicron, UniProt Q89ZI2)
Construct: gene BT_4395; gene from D. Vocadlo; GH84
Sequence (Q89ZI2 22-737, change not shown): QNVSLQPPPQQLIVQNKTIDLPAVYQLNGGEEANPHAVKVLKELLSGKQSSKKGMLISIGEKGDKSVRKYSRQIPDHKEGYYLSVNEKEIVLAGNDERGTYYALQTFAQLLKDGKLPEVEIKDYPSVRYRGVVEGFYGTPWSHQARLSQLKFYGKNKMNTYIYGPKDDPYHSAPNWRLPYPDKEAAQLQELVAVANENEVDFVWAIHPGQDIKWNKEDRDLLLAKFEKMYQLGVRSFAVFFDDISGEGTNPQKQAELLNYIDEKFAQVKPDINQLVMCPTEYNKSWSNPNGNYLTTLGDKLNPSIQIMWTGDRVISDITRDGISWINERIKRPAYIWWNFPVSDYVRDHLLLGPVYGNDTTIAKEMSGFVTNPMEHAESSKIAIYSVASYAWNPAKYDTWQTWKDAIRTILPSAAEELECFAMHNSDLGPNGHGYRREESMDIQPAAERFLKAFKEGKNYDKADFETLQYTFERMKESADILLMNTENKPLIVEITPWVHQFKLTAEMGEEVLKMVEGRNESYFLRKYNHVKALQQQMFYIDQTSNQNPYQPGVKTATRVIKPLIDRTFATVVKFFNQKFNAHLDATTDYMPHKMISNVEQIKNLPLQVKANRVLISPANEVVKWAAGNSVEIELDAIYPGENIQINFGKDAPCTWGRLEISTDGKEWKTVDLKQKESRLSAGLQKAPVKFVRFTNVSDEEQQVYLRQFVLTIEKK
procedure.summary: pNP-β-GlcNAc hydrolysis, kinetic assay at […] nm
Type: biochemical
condition.parameters: read-out: KI [μM] / NAG-thiazoline (1)

{"smiles.notation": "CC1=N[C@@H]2[C@@H](O)[C@H](O)[C@@H](CO)O[C@@H]2S1", "quantity.unit": "µM", "Ki": 0.029}
